Quick note: these are IC50 numbers for system: UniProt:F1MGM3
Sequence (F1MGM3 1-403): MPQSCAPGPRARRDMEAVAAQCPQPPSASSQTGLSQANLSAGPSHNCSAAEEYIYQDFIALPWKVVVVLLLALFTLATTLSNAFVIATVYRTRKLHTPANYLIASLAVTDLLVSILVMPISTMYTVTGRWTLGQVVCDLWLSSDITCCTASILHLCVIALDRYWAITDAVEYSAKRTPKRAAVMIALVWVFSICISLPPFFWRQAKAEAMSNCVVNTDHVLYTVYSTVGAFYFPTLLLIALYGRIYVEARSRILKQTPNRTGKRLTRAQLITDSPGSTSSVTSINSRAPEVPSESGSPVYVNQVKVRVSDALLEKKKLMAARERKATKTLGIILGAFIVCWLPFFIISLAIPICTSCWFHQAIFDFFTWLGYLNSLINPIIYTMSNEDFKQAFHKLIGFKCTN
Counter-ions that a name gives are not always drawn.
measured property: IC50 (nM)

INSERT INTO results (compound, system_tested, measured_property, meas_value) VALUES
  ('COc1cnccc1N1CCN(CCCc2c[nH]c3ccccc23)CC1 [Example 62, dihydrochloride]', 'UniProt:F1MGM3', 'IC50', 10),
  ('CNS(=O)(=O)Cc1ccc2[nH]cc(CCCN3CCN(c4ccncc4OC)CC3)c2c1 [Example 61, hydrochloride]', 'UniProt:F1MGM3', 'IC50', 1),
  ('COc1cncnc1N1CCN(CCCc2c[nH]c3ccc(F)cc23)CC1', 'UniProt:F1MGM3', 'IC50', 1.5);
